assay: Aqueous phase distribution coefficient, log P of the compound in phosphate buffer at pH 7.4; assay type: physicochemical
Overview of reported logD across a group of compounds:
Provide a numeric answer; units are not to be included.

Here's what some known entries look like.
# mol, logD
rows = [
    ("CN(C)/N=N/c1ccccc1C(N)=O", 1.73),
    ("CN(C)/N=N/c1ccccc1", 2.59),
    ("CSc1ccccc1/N=N/N(C)C", 3.13),
]

Q: State, in one line, measured logD of COc1ccccc1/N=N/N(C)C
Result: 2.34

* * *

experiment: Distribution coefficient, log P of the compound; type: physicochemical; settings: octanol/water; read-out: logP
Lab note - cut at 3 for logP: t if strictly below, f if not.

Reference set (6 entries):
# mol, assigned category
records = [
    ("CN(Cc1ccccc1)/N=N/c1nc[nH]c1C(N)=O", "t"),
    ("CCCCCCCCN(C)/N=N/c1ccccc1C(=O)O", "t"),
    ("CN(C)/N=N/c1ccccc1", "t"),
    ("CN(C)/N=N/c1n[nH]cc1C(N)=O", "t"),
    ("CN(C)/N=N/c1ccccc1C(N)=O", "t"),
    ("CCCCCCCCN(C)/N=N/c1nc[nH]c1C(N)=O", "f"),
]

Q: Bench note: check whether CC(=O)N(C)/N=N/c1ccc(C)cc1 shows logP below 3
Result: f

* * *

test: Octanol-saturated water partition coefficient, log D of the compound; type: physicochemical
quantity name: logD
Provide a numeric answer; units are not to be included.

Here's what some known entries look like.
# mol, obs value
measured = [
    ("COC(=O)c1c[nH]nc1/N=N/N(C)C", 0.04),
    ("CN(C)/N=N/c1ccccc1C(=O)NC#N", 0.8),
    ("CN(C)/N=N/c1ccccc1C(=O)NN", 1.28),
    ("CCCCN(C)/N=N/c1ccc(C(N)=O)cc1", 2.46),
    ("CN(C)/N=N/c1cccc([N+](=O)[O-])c1", 2.75),
]

Q: State, in one line, measured logD of CN(C)/N=N/c1ccc(C#N)cc1
Result: 2.39

Q: State, in one line, measured logD of CC(=O)N(C)/N=N/c1ccc(C)cc1
Result: 3.13

* * *

Overview of reported logP across a group of compounds:
test: Distribution coefficient, log P of the compound; assay type: physicochemical; settings: octanol/water
Provide a numeric answer; units are not to be included.

Here's what some known entries look like.
# mol, quantity name, obs value
records = [
    ("CN(C)/N=N/c1ccccc1C(=O)NCC#N", "logP", 1.79),
    ("CN(C)/N=N/c1cc(C#N)cc(C#N)c1", "logP", 2.18),
]

Q: State, in one line, measured logP of CCOC(=O)c1[nH]cnc1/N=N/N(C)C
Result: 0.44

* * *

Overview of reported logP across a group of molecules:
assay: Distribution coefficient, log P of the compound; type: physicochemical; details: octanol/water
Provide a numeric answer; units are not to be included.

Here's what some known entries look like.
# mol, obs value
measured = [
    ("COc1ccc(C(N)=O)cc1/N=N/N(C)C", 0.44),
    ("CN(C)/N=N/c1ccc(S(N)(=O)=O)cc1", 0.98),
    ("C=CCN(C)/N=N/c1ccc(C(N)=O)cc1", 2.09),
    ("CNC(=O)c1ccccc1/N=N/N(C)C", 1.83),
]

Q: State, in one line, measured logP of CN(C)/N=N/c1cc(C(N)=O)cc(C(N)=O)c1
Result: 0.22

Q: State, in one line, measured logP of CN(C)/N=N/c1ccc(NC(N)=O)cc1
Result: 1.25

Q: State, in one line, measured logP of CN(C)/N=N/c1ccccc1C(=O)NCC(N)=O
Result: 1.17
